pEC50, human dopamine D2 long receptor (Homo sapiens), per-entry values.
// pEC50: -log10(molar conc.)

compound: CCCN1CCOC(c2cc(O)cc(O)c2)C1 (single isomer, unassigned) [Example 15a]
pEC50: 5.76
--
compound: CCCN1CCC[C@@H]2Cc3nc(N)ncc3C[C@H]21
pEC50: 8.21

query: # returns recorded pEC50 (system: human dopamine D2 long receptor (Homo sapiens)) for c1ccc(N2CCN(C[C@H]3CC[C@H](Nc4ncccn4)CC3)CC2)cc1
Sequence (P14416 whole entry): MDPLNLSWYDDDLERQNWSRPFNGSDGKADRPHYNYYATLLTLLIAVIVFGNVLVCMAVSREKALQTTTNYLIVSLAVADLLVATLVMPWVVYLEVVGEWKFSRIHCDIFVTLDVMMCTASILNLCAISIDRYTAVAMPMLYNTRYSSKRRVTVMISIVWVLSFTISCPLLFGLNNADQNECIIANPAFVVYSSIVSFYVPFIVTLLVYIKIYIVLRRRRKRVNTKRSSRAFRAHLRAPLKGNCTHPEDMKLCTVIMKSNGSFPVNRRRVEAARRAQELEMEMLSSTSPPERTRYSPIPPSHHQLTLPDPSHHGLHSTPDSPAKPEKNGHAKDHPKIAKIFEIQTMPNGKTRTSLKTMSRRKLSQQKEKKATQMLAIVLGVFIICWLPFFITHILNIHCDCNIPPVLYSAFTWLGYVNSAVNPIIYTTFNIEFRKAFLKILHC
result: 8.42

query: # returns recorded pEC50 (system: human dopamine D2 long receptor (Homo sapiens)) for CCCN(CCC)CCc1cccc2c1CC(=O)N2
result: 7.79

query: # returns recorded pEC50 (system: human dopamine D2 long receptor (Homo sapiens)) for CCCN1CCO[C@H](c2cccc(O)c2)C1.Cl [Example 8, hydrochloride]
result: 5.30
